- ASSAYED_SYSTEM: Fatty acid-binding protein, adipocyte (Homo sapiens, UniProt P15090)
- Sequence (P15090 2-132 limits assumed): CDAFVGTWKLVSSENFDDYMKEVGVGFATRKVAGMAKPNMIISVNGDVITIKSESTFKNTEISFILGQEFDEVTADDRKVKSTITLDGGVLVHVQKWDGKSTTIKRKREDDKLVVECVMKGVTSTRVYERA
- PROTOCOL_DESCRIPTION: Binding affinity to His6-tagged FABP4 (unknown origin) expressed in Escherichia coli BL21(DE3) cells assessed as change in melting temperature at 50 uM after 30 mins by SYPRO orange dye based thermal stability shift assay
PARAMETER: ΔTm
Give me the value, and tack the unit on after it.

# example entries with known answers
MOLECULE	ASSAYED_SYSTEM	RESULT
O=C(O)C1C2CC(Sc3ccccc3[N+](=O)[O-])C(Cl)C2c2cccc3c2N1CC1CC=CC31 (stereo unspecified)	Fatty acid-binding protein, adipocyte (Homo sapiens, UniProt P15090)	3.5 °C
COc1ccc(Cc2c(C)[nH]c3ccc(C(=O)O)cc23)cc1	Fatty acid-binding protein, adipocyte (Homo sapiens, UniProt P15090)	1.2 °C
CC(Sc1nc(-c2ccccc2)c(-c2ccccc2)[nH]1)C(=O)O (stereo unspecified)	Fatty acid-binding protein, adipocyte (Homo sapiens, UniProt P15090)	3.1 °C
Cc1nc(=O)c(-c2ccccc2)c(C)n1CCCCCC(=O)O	Fatty acid-binding protein, adipocyte (Homo sapiens, UniProt P15090)	0 °C
O=C(O)C1CCCCC1C(=O)Nc1ccccc1-c1ccccc1 (stereo unspecified)	Fatty acid-binding protein, adipocyte (Homo sapiens, UniProt P15090)	3.9 °C
COc1ccc(CN(C(=O)COc2cc(C)ccc2C(C)C)c2ccccc2C(=O)O)cc1	Fatty acid-binding protein, adipocyte (Homo sapiens, UniProt P15090)	0.1 °C
CCCN1C2=C(C(=O)CC(C)(C)C2)C(c2cc(Cl)ccc2OCC(=O)O)C2=C1CC(C)(C)CC2=O	Fatty acid-binding protein, adipocyte (Homo sapiens, UniProt P15090)	-0.2 °C
Cc1ccc(C(=O)/C(=C\Nc2cc(Cl)ccc2C(=O)O)c2nnnn2-c2ccc(C)cc2)cc1	Fatty acid-binding protein, adipocyte (Homo sapiens, UniProt P15090)	-2.6 °C
Cc1oc2c(cc(NS(=O)(=O)c3ccc(Cl)cc3)c3ccccc32)c1C(=O)O	Fatty acid-binding protein, adipocyte (Homo sapiens, UniProt P15090)	2.8 °C
CCCOc1cc(S(=O)(=O)Nc2ccc(C(=O)O)cc2)ccc1Cl	Fatty acid-binding protein, adipocyte (Homo sapiens, UniProt P15090)	0.1 °C

Prompt: Notebook: pull reported ΔTm for Fatty acid-binding protein, adipocyte (Homo sapiens, UniProt P15090), entry O=C(O)c1ccccc1C(=O)N(Cc1ccccc1)Cc1ccccc1
Completion: 1 °C

Prompt: Notebook: pull reported ΔTm for Fatty acid-binding protein, adipocyte (Homo sapiens, UniProt P15090), entry O=C(CSc1ncccc1C(=O)O)c1ccc(O)c(O)c1
Completion: -0.6 °C

* * *

- ASSAYED_SYSTEM: UniProt:P15090
- PROTOCOL_DESCRIPTION: Displacement of 1,8-ANS from His6-tagged FABP4 (unknown origin) expressed in Escherichia coli BL21(DE3) cells at 25 uM by fluorescence assay relative to control
Below, each of the molecules is paired with its reported inhibition value.
Give me the value, and tack the unit on after it.

# example entries with known answers
MOLECULE	PARAMETER	RESULT
Cc1nc(=O)c(-c2ccccc2)c(C)n1CCCCCC(=O)O	inhibition	-3.2%
Cc1ccc(S(=O)(=O)NC(CC(=O)O)c2ccccc2)c(C)c1 (stereo not given)	inhibition	-0.3%
CN(CC(=O)O)c1ncc(-c2nnnn2-c2ccccc2)c(-c2ccccc2Cl)n1	inhibition	0.5%
Cc1[nH]nc2c1C1(C(=O)N(C(C)C(=O)O)c3ccccc31)C(C#N)=C(N)O2 (stereo not given)	inhibition	6%
Cc1oc2c(cc(NS(=O)(=O)c3ccc(Cl)cc3)c3ccccc32)c1C(=O)O	inhibition	30.2%
O=C(O)CC/C(=N/NC(=O)c1c[nH]c2ccccc12)c1ccccc1	inhibition	-0.8%
O=C(Nc1cc(Cl)ccc1Cl)/C(=N\Nc1ccccc1C(=O)O)C(=O)c1ccccc1	inhibition	39.5%
O=C(CSc1ncccc1C(=O)O)c1ccc(O)c(O)c1	inhibition	-0.2%

Prompt: Entry O=C(O)c1ccccc1C(=O)N(Cc1ccccc1)Cc1ccccc1 has what inhibition?
Completion: 4.9%

Prompt: Entry O=C(O)CCC(=O)Nc1sc2c(c1C(=O)Nc1cccc3ccccc13)CCCCC2 has what inhibition?
Completion: 0.4%

* * *

- ASSAYED_SYSTEM: Fatty acid-binding protein, heart (Homo sapiens, UniProt P05413)
- Sequence (P05413 whole entry): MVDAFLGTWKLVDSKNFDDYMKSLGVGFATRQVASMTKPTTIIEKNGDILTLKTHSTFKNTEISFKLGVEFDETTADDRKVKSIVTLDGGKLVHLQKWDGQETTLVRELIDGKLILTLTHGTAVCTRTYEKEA
PARAMETER: pKi
In simple prose, pKi is minus the logarithm base ten of a concentration in moles per litre.

Prompt: Notebook: pull reported pKi for Fatty acid-binding protein, heart (Homo sapiens, UniProt P05413), entry O=C(O)C1C2CC=CC2c2cc(Br)cc3c2N1CC1CC=CC31 (stereo unspecified)
Completion: 5.89

* * *

Below, each of the molecules is paired with its reported ΔTm value.
- ASSAYED_SYSTEM: Fatty acid-binding protein, adipocyte (Homo sapiens, UniProt P15090)
- PROTOCOL_DESCRIPTION: Binding affinity to His6-tagged FABP4 (unknown origin) expressed in Escherichia coli BL21(DE3) cells assessed as change in melting temperature at 50 uM after 30 mins by SYPRO orange dye based thermal stability shift assay

# example entries with known answers
MOLECULE	ΔTm
COc1ccc(-c2ccc(C#N)c(SCC(=O)NCC(=O)O)n2)cc1	-0.1 °C
O=C(O)c1cccc(-c2ccc(CNC(Cc3c[nH]c4ccccc34)C(=O)O)o2)c1 (centres undefined)	-2.4 °C
O=C(O)C1C2CC=CC2c2cc(Cl)cc3c2N1CC1CC=CC31 (centres undefined)	7.9 °C

Next molecule, please.
Prompt: Notebook: pull reported ΔTm for Fatty acid-binding protein, adipocyte (Homo sapiens, UniProt P15090), entry C=C1C(N(CCc2ccc(OC)cc2)C(=O)CCC(=O)O)CC(=O)N1c1ccccc1 (centres undefined)
Completion: -0.1 °C

* * *

Below, each of the molecules is paired with its reported inhibition value.
- ASSAYED_SYSTEM: Fatty acid-binding protein, adipocyte (Homo sapiens)
- PROTOCOL_DESCRIPTION: Displacement of 1,8-ANS from His6-tagged FABP4 (unknown origin) expressed in Escherichia coli BL21(DE3) cells at 25 uM by fluorescence assay relative to control
Form entry: value (%) — number only.

# example entries with known answers
MOLECULE	RESULT
Cc1oc2ccc(NS(=O)(=O)c3ccccc3)cc2c1C(=O)O	9.5
CCOC(=O)c1cnc2c(ccc3ccccc32)c1Nc1cccc(C(=O)O)c1	18.2

Next molecule, please.
Prompt: Entry CCOc1cc(/C=C2/SC(=S)N(CCC(=O)O)C2=O)ccc1O has what inhibition?
Completion: 63.2

* * *

- ASSAYED_SYSTEM: Fatty acid-binding protein, adipocyte (Homo sapiens)
- PROTOCOL_DESCRIPTION: Binding affinity to His6-tagged FABP4 (unknown origin) expressed in Escherichia coli BL21(DE3) cells assessed as change in melting temperature at 50 uM after 30 mins by SYPRO orange dye based thermal stability shift assay
Use 1 °C as the dividing line for ΔTm, with the line itself on the true (1) side and lower values as false (0).

Consider the following illustrative entries.
COMPOUND	LABEL_VALUE
COc1ccc(S(=O)(=O)Nc2ccccc2C(=O)O)c2ccccc12	true (1)
O=C(O)CC(Sc1nc2sc3c(c2c(=O)[nH]1)CCCC3)C(=O)O (centres undefined)	false (0)
O=C(O)c1cccc2c1NC(c1ccccc1[N+](=O)[O-])C1CC(Sc3ccccc3[N+](=O)[O-])C(Cl)C21 (centres undefined)	false (0)
COc1ccccc1N1CCN(C(=O)c2ccccc2NC(=O)C2CCCCC2C(=O)O)CC1 (centres undefined)	false (0)
O=C(O)CCC(=O)Nc1sc2c(c1C(=O)Nc1cccc3ccccc13)CCCCC2	false (0)

Prompt: For this compound, is measured ΔTm 1 °C or higher? Cc1cc(C)c2c3c1C1C=CCC1CN3C(C(=O)O)C1CC=CC21 (centres undefined)
Completion: true (1)

Prompt: For this compound, is measured ΔTm 1 °C or higher? O=C(O)C1C2CC=CC2c2cc(Br)cc3c2N1CC1CC=CC31 (centres undefined)
Completion: true (1)

Prompt: For this compound, is measured ΔTm 1 °C or higher? COc1ccccc1-c1cc(C(F)(F)F)nc(S(=O)(=O)CCCC(=O)O)n1
Completion: false (0)

Prompt: For this compound, is measured ΔTm 1 °C or higher? Cc1ccc(C(=O)C2=C(O)C(=O)N(CCCC(=O)O)C2c2ccccc2F)cc1 (centres undefined)
Completion: false (0)

* * *

- ASSAYED_SYSTEM: Fatty acid-binding protein, adipocyte (Homo sapiens)
- PROTOCOL_DESCRIPTION: Displacement of 1,8-ANS from His6-tagged FABP4 (unknown origin) expressed in Escherichia coli BL21(DE3) cells at 25 uM by fluorescence assay relative to control
Use 20% as the dividing line for inhibition, with the line itself on the Y side and lower values as N.

Consider the following illustrative entries.
MOLECULE	LABEL_VALUE
CCCOc1cc(S(=O)(=O)Nc2ccc(C(=O)O)cc2)ccc1Cl	Y
COc1ccc(C2C(C(=O)c3ccc(C)cc3)=C(O)C(=O)N2CCCC(=O)O)cc1OC (stereo not drawn)	N
O=C(O)CSc1cc(NS(=O)(=O)c2ccc(Cl)cc2)c2ccccc2c1O	Y
Cc1ccc(-n2c(SCC(=O)Nc3c(C)cccc3C)nc(O)cc2=O)cc1	N
CN1C(=O)/C(=N/c2cccc(C(=O)O)c2)S/C1=C\c1cccs1	Y

Prompt: For this molecule, is measured inhibition 20% or higher? CCCCCCCC/C=C\CCCCCCCC(=O)O
Completion: Y

Prompt: For this molecule, is measured inhibition 20% or higher? C=C1C(N(CCc2ccc(OC)cc2)C(=O)CCC(=O)O)CC(=O)N1c1ccccc1 (stereo not drawn)
Completion: N

This collection of values is drawn from ChEMBL document CHEMBL3826919.
